Origin of values: ChEMBL document CHEMBL1250429

# System: Hepatitis C virus
# Measurement notes: Inhibition of HCV genotype 1B NS3 helicase
# Set-up: species or system Hepatitis C virus subtype 1b
Quantity measured: pIC50
One number for each entry, as −log10 of the molar value.

Sample CN1CCN(Cc2cc(CN3CCN(C)CC3)c(O)c(=O)c(CN3CCN(C)CC3)c2)CC1 — what was its pIC50?
5.46

###

# Measurement notes: Inhibition of HCV genotype 3a NS3 helicase
# Parameters: species or system Hepatitis C virus subtype 3a
Quantity measured: pIC50
Numbers only, as −log10 of the molar value.

Sample CN1CCN(Cc2cc(CN3CCN(C)CC3)c(O)c(=O)c(CN3CCN(C)CC3)c2)CC1 — what was its pIC50?
5.35

###

# Measurement notes: Inhibition of HCV NS3 helicase
# Parameters: species or system Hepacivirus hominis
Quantity measured: pIC50
Numbers only, as −log10 of the molar value.

CC1CCCN(Cc2cc(CN3CCCC(C)C3)c(O)c(=O)c(CN3CCCC(C)C3)c2)C1 (stereo unspecified) ... 4.75
O=c1c(CN2CCC(N3CCCC3)CC2)cc(CN2CCC(N3CCCC3)CC2)cc(CN2CCC(N3CCCC3)CC2)c1O ... 5.15
O=c1c(CN2CCC(O)CC2)cc(CN2CCC(O)CC2)cc(CN2CCC(O)CC2)c1O ... 4.64
O=c1c(CN2CCCCC2)cc(CN2CCCCC2)cc(CN2CCCCC2)c1O ... 4.58
CC1CCN(Cc2cc(CN3CCC(C)CC3)c(O)c(=O)c(CN3CCC(C)CC3)c2)CC1 ... 4.98
O=c1c(Br)cc(CN2CCOCC2)cc(Br)c1O ... 4.75
O=c1c(CN2CCCC2)cc(CN2CCCC2)cc(CN2CCCC2)c1O ... 3.74

Sample CN1CCN(Cc2cc(CN3CCN(C)CC3)c(O)c(=O)c(CN3CCN(C)CC3)c2)CC1 — what was its pIC50?
5.47

###

# Measurement notes: Selectivity index, ratio of CC50 for human HuH7 cells to EC50 for
# Design: species or system Huh-7
Field: Ratio CC50/EC50. Provide a value for each of the compounds that follow.

O=c1c(Br)cc(CN2CCOCC2)cc(Br)c1O ... 1.3
CC1CCN(Cc2cc(CN3CCC(C)CC3)c(O)c(=O)c(CN3CCC(C)CC3)c2)CC1 ... 17.4
O=c1ccccc(Br)c1O ... 0.7
CC1CCCN(Cc2cc(CN3CCCC(C)C3)c(O)c(=O)c(CN3CCCC(C)C3)c2)C1 (centres undefined) ... 9.8
O=c1c(Cl)cccc(Cl)c1O ... 0.8
NC(=O)c1ncn([C@@H]2O[C@H](CO)[C@@H](O)[C@H]2O)n1 [RIBAVIRIN] ... 1.5

Quick one: give me Ratio CC50/EC50 for each item below, same order please.
1. CN1CCN(Cc2cc(CN3CCN(C)CC3)c(O)c(=O)c(CN3CCN(C)CC3)c2)CC1
2. O=c1c(Br)cccc(Br)c1O

[">21.3", 1]

Sample O=c1c(CN2CCCCC2)cc(CN2CCCCC2)cc(CN2CCCCC2)c1O — what was its Ratio CC50/EC50?
>3.6

###

# System: Hepatitis C virus
# Measurement notes: Antiviral activity against HCV Con 1 by subgenomic replicon assay
# Type: functional, organism-based, Hepacivirus hominis
# Experimental setup: Con1
pEC50: −log10 of the molar value.
Condition met means recorded pEC50 is 4 or above; Condition not met means it is below 4.

[N-]=[N+]=N[C@]1(CO)O[C@@H](n2ccc(N)nc2=O)[C@H](O)[C@@H]1O ... Condition met
O=c1c(CN2CCCC2)cc(CN2CCCC2)cc(CN2CCCC2)c1O ... Condition not met
O=c1c(CN2CCC(N3CCCC3)CC2)cc(CN2CCC(N3CCCC3)CC2)cc(CN2CCC(N3CCCC3)CC2)c1O ... Condition not met
O=c1c(Br)cc(CN2CCOCC2)cc(Br)c1O ... Condition not met
CC1CCCN(Cc2cc(CN3CCCC(C)C3)c(O)c(=O)c(CN3CCCC(C)C3)c2)C1 (stereo not drawn) ... Condition met
CN1CCN(Cc2cc(CN3CCN(C)CC3)c(O)c(=O)c(CN3CCN(C)CC3)c2)CC1 ... Condition met

Evaluate O=c1c(CN2CCC(O)CC2)cc(CN2CCC(O)CC2)cc(CN2CCC(O)CC2)c1O : pEC50 at minimum 4?
Condition not met

Evaluate O=c1c(CN2CCCCC2)cc(CN2CCCCC2)cc(CN2CCCCC2)c1O : pEC50 at minimum 4?
Condition not met

Evaluate O=c1c(Cl)cccc(Cl)c1O : pEC50 at minimum 4?
Condition not met

Evaluate CC1CCN(Cc2cc(CN3CCC(C)CC3)c(O)c(=O)c(CN3CCC(C)CC3)c2)CC1 : pEC50 at minimum 4?
Condition met

###

# Measurement notes: Inhibition of HCV genotype 1a NS3 helicase
# Parameters: species or system Hepatitis C virus subtype 1a
Quantity measured: pIC50
Answers are plain numbers, as −log10 of the molar value.

Sample CN1CCN(Cc2cc(CN3CCN(C)CC3)c(O)c(=O)c(CN3CCN(C)CC3)c2)CC1 — what was its pIC50?
5.47

###

# Measurement notes: Cytotoxicity against human HuH7 cells
# Format: cell-based, Huh-7
Quantity measured: CC50 (µM)
Numbers only, in µM.

Here's what some known entries look like.
O=c1c(Br)cccc(Br)c1O ... 92.7
CC1CCCN(Cc2cc(CN3CCCC(C)C3)c(O)c(=O)c(CN3CCCC(C)C3)c2)C1 (stereo not drawn) ... 348

Quick one: give me CC50 for each item below, same order please.
1. O=c1c(Cl)cccc(Cl)c1O
2. O=c1c(Br)cc(CN2CCOCC2)cc(Br)c1O
3. NC(=O)c1ncn([C@@H]2O[C@H](CO)[C@@H](O)[C@H]2O)n1

[254, 227, 178]

Quick one: give me CC50 for each item below, same order please.
1. CC1CCN(Cc2cc(CN3CCC(C)CC3)c(O)c(=O)c(CN3CCC(C)CC3)c2)CC1
2. O=c1ccccc(Br)c1O

1. 556
2. 85.2

###

# Measurement notes: Inhibition of HCV NS3 helicase
# Set-up: species or system Hepacivirus hominis
pIC50: −log10 of the molar value.
Quantity measured: pIC50

O=c1c(Cl)cccc(Cl)c1O ... < 3.82
O=c1ccccc(Br)c1O ... < 3.82

Kindly review the next compound as well.
Sample O=c1c(Br)cccc(Br)c1O — what was its pIC50?
< 3.82

###

# Test system: Hepatitis C virus
# Measurement notes: Antiviral activity against HCV Con 1 by subgenomic replicon assay
# Type: functional, organism-based, Hepacivirus hominis
# Experimental setup: Con1
Field: EC50. Provide a value for each of the molecules that follow.

O=c1c(Br)cccc(Br)c1O ... 89.8 µM
O=c1ccccc(Br)c1O ... 121 µM

Kindly review the next molecule as well.
Sample NC(=O)c1ncn([C@@H]2O[C@H](CO)[C@@H](O)[C@H]2O)n1 — what was its EC50?
120 µM

###

# Measurement notes: Cytotoxicity against human HuH7 cells
# Format: cell-based, Huh-7
Field: CC50. Provide a value for each of the compounds that follow.

Here's what some known entries look like.
O=c1c(CN2CCC(N3CCCC3)CC2)cc(CN2CCC(N3CCCC3)CC2)cc(CN2CCC(N3CCCC3)CC2)c1O ... > 200 µM
CN1CCN(Cc2cc(CN3CCN(C)CC3)c(O)c(=O)c(CN3CCN(C)CC3)c2)CC1 ... > 1000 µM
O=c1c(CN2CCCC2)cc(CN2CCCC2)cc(CN2CCCC2)c1O ... > 500 µM
O=c1c(CN2CCC(O)CC2)cc(CN2CCC(O)CC2)cc(CN2CCC(O)CC2)c1O ... > 250 µM
[N-]=[N+]=N[C@]1(CO)O[C@@H](n2ccc(N)nc2=O)[C@H](O)[C@@H]1O ... > 100 µM

Sample O=c1c(CN2CCCCC2)cc(CN2CCCCC2)cc(CN2CCCCC2)c1O — what was its CC50?
> 500 µM
